System: HCV genotype 1b replicon
Test: HCV replicon assay, cell ELISA with antibody to replicon-encoded NS3/4A (genotype 1b replicon)
Assay type: cell-based, hepatitis C virus
Conditions: Hepatitis C virus, 96 h, read-out: 1b IC50(nM), HCV genotype 1b replicon; 96 hours incubation; NS3/4A cell ELISA
Procedure: The HCV NS5B inhibitory activity of the present compounds may be tested using assays known in the art. The HCV NS5B polymerase inhibitors described herein have activities in a genotype 1b replicon assay as described in the Examples. […] By performing a series of such measurements at different inhibitor concentrations, the effective inhibitory concentration of the inhibitor (EC50 or EC90) is determined. […]
Label true (1) when IC50 < 10 nM; otherwise false (0).

compound: CNC(=O)c1c(-c2ccc(F)cc2)oc2cc(N(C)S(C)(=O)=O)c(-c3cnc(OC)c(-c4nc5c(F)cccc5o4)c3)cc12
assigned_category: true (1)
//
compound: CNC(=O)c1c(-c2ccc(F)cc2)oc2cc(N(C)S(C)(=O)=O)c(-c3cc(OC)cc(-c4cc5cccnc5[nH]4)c3)cc12
assigned_category: true (1)
//
compound: CNC(=O)c1c(-c2ccc(F)cc2)oc2cc(N(CCC3COC(C)(C)O3)S(C)(=O)=O)c(-c3ccc(OC)c(-c4nc5c(F)cc(F)cc5o4)c3)cc12 (stereo not drawn)
assigned_category: false (0)
//
compound: CNC(=O)c1c(-c2ccc(F)cc2)oc2cc(N(CC(C)(C)F)S(C)(=O)=O)c(-c3ccc(OC)c(-c4nc5c(F)cccc5o4)c3)cc12
assigned_category: false (0)

Determine whether this compound shows IC50 lower than 10 nM (ties excluded): CNC(=O)c1c(-c2ccc(F)cc2)oc2cc(N(C)S(C)(=O)=O)c(-c3ccc(-c4ccco4)c(-c4nc5c(F)cccc5o4)c3)cc12
true (1)

// same read-out, input: CNC(=O)c1c(-c2ccc(F)cc2)oc2cc(N(CC3(C#N)CC3)S(C)(=O)=O)c(-c3ccc(OC)c(-c4nc5c(F)cccc5o4)c3)cc12
false (0)
